Measured z-score of individual entries
Test: PSAC antagonists in infected red cells, primary screen, cell-based, P. falciparum Indochina, OD700, 18 h (AID 1157)
Details: P. falciparum Indochina infected erythrocytes, osmotic lysis OD700, 18 h; higher = more signal, called active from +8 up or from −8 down
Keep it simple and answer with nothing but the number.

GET /values?readout=z-score&item= COC(=O)[C@@]1(Cc2ccc(F)cc2)[C@H]2c3cc(C(=O)N4CCCC4)n(CC4CC4)c3C[C@H]2CN1C(=O)c1ccccc1
0.666

###

Test: basal RPMI8226 mitochondrial membrane potential changes, profiling panel, cell-based, JC-1 fluorescence, 24 h, 100 nL compound (AID 1169); further: test concentration not given here
Conditions: RPMI8226 myeloma, JC-1 mitochondrial potential fluorescence, higher = more signal
Measured z-score of individual entries
Keep it simple and answer with nothing but the number.

> print(dat)
                                   compound  assay.value
1  CC(C)CCC[C@@H](C)[C@H]1CC[C@@]2(C)C3=C(CC[C@]12C)[C@@]1(C)CC[C@H](OC(=O)c2ccccc2)C(C)(C)C1CC3 (some centres not stated)       -0.671
2  C=C(C)C1CCC(C(O)C2C=CC3C(=O)N(C)C(=O)C3N2Nc2cc(OC)c(OC)c(OC)c2)CC1 (configuration not stated)       -0.354
3  O=C(CS)NCCCCCCNC(=O)[C@@H]1C[C@@H]2C(=O)NCC(=O)N2[C@@H]1c1ccc(O)cc1        0.391
4  C=C(/C(=C/C[C@@H](OC(C)=O)c1ccc(OCCO)cc1)c1cc(C(=O)OC)ccc1OC)C(C)C       -0.799
5  CCOC(=O)C[C@H]1[C@H](OC(=O)c2cc3ccccc3oc2=O)[C@@H](NC(=O)c2ccc3ccccc3c2)c2cc(OCCCO)ccc2N1C(=O)Cc1ccc(OC)cc1       -0.229

GET /values?readout=z-score&item= CC(C)CNC(=O)[C@@]1(c2ccc([N+](=O)[O-])cc2)CC(=O)N(C2CCCCC2)[C@@H]1c1ccc(CO)cc1
-0.426

GET /values?readout=z-score&item= O=C1OCCC=C[C@H]2OC34C=CCN(c5ccc(Cl)cc5)C(=O)[C@H]3N(CCCCCCO)C(=O)[C@@H]4C12 (some centres not stated)
-0.0541

###

Measured z-score of individual entries
Assay: basal S. cerevisiae growth modulation, no modifier, primary screen, OD600, strain BY4716, 24 h, basal condition (AID 1173)
Details: OD600, 24 h, higher = more signal, called active from +8 up or from −8 down
Calls of active or inactive are those of the source.

Compound	z-score
CCOC(=O)C[C@H]1[C@H](OC(=O)c2ccccc2-c2ccccc2)[C@@H](NC(=O)c2ccc3ccccc3n2)c2cc(OCCCO)ccc2N1C(=O)c1ccccc1	1.16 (inactive)
COc1ccc(C(O)C2C=CC3C(=O)N(c4ccccc4)C(=O)C3N2Nc2ccccc2F)cc1 (centres undefined)	-0.359 (inactive)
C=C(COC)/C(=C/C[C@H](OC(C)=O)c1cccc(OCCO)c1)c1cnc2ccccc2c1	1.02 (inactive)

Next, consider the following compound.
GET /values?readout=z-score&item= COCCOC(=O)N1C(=O)[C@@]2(c3cc(C#CC4(O)CCCCCC4)ccc31)[C@H](c1ccc(OCCO)cc1)N1[C@H](c3ccccc3)[C@H](c3ccccc3)OC(=O)[C@H]1[C@@H]2C(=O)Nc1nc2ccccc2s1
1.46 (inactive)
